All figures here come from paper PMC9344678.

- Target system: BORIS-N1-258 (Homo sapiens, UniProt Q8NI51)
- Construct: The N terminal section of BORIS corresponding to AA 1–258 (BORIS-N1-258); 6xHis (C); made in house
- Sequence (Q8NI51 1-258): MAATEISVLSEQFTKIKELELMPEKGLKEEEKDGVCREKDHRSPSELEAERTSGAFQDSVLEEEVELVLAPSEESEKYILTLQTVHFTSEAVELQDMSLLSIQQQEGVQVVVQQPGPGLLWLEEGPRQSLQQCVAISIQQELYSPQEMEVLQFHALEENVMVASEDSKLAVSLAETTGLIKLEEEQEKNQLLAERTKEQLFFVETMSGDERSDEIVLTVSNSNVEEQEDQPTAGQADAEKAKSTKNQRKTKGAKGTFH
- Protocol details: BLI, BORIS-N1-258 immobilized on SSA sensor, free peptide in solution
- Format: binding
- Run conditions: bacterial BORIS-N1-258 on SSA sensor, free peptide in PBS with 0.02% Tween 20; read-out: binding affinity (Kd)
Where no end group is shown, it is not given here.
Attribute measured: Kd (µM)
Note: unit µM is implicit; provide only the numeric part.

Task: Quick one: Kd of DWSSWVYRDPQT [Peptide 2] ?
Output: 315
